- target of assay: M. tuberculosis EthR (Mycobacterium tuberculosis)
- Sequence (P9WMC1 whole entry, looked up): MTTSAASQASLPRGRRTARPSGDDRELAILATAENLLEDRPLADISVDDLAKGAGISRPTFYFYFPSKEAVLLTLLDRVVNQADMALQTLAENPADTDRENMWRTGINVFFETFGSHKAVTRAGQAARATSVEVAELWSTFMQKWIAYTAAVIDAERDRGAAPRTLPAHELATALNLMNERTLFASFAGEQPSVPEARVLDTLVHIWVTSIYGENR
- assay info: Surface plasmon resonance assay of EthR binding to ethA promoter DNA
- test context: ligand efficiency for EthR inhibition
measured parameter: LE (ligand efficiency)
Answer with a bare number; do not write a unit.

GET /values?readout=LE (ligand efficiency)&item= O=C(NC1=NCCS1)c1sc2cc(F)ccc2c1Cl [Compound 1]
0.35

Ok, now O=C(COc1cccc(F)c1)Nc1nc(-c2ccccn2)cs1 [Compound 7]
0.26

Ok, now Fc1ccc2nc(Nc3nc(-c4ccccn4)cs3)sc2c1 [Compound 6]
0.30

Ok, now O=C(Cc1ccc(F)cc1)Nc1nc(-c2ccccn2)cs1 [Compound 2]
0.31

Ok, now O=C(C1CCN(c2nnc(-n3cccc3)s2)CC1)N1CCC(Cc2ccccc2)CC1 [Compound 3]
0.24

Ok, now c1ccc(-c2csc(Nc3nc4cc5c(cc4s3)OCO5)n2)nc1 [Compound 4]
0.28
